# experimental-target: Glucose transporter (Leishmania mexicana) (UniProt O61059)
# assay-summary: ST_JUDE_LEISH: Cytotoxicity at 2uM final concentration against transgenic Leishmania Mexicana promastigotes LmGT2 that are glucose transport deficient and complemented with the L. Mexicana glucose transporter 2. Activity is measured by DNA content using SYBR green in vitro
# Format: functional

{"columns": ["compound", "inhibition (%)"],
 "data": [
  ["NC1=NC2(CCCC2)N(c2ccc(Cl)cc2)C(N)=N1", 3.83],
  ["CC[C@H]1CN2CC[C@H]1C[C@H]2[C@H](O)c1cc(-c2cccc(Cl)c2)nc2ccc(OC)cc12", 10.7],
  ["COc1ccc(C(=O)C2CC2CN2CC=C(c3c(C)[nH]c4ccccc34)CC2)cc1 (stereo not drawn)", 3.3],
  ["COC(=O)c1ccc(CC(C)NCC(O)c2cccc(OCc3ccccc3)c2)cc1 (stereo not drawn)", 8.15],
  ["CC(Cc1ccc(CSC(C)C)cc1)NCC(O)c1cccc(Cl)c1 (stereo not drawn)", 3.37],
  ["COCC(=O)N(Cc1cccc(-c2ccc(CNCCc3ccccc3)cc2)c1)C1CCN(Cc2ccccc2)CC1", 2.98],
  ["COC(=O)c1ccc(CC(C)NCC(O)c2cccc(Cl)c2Cl)cc1 (stereo not drawn)", 3.04],
  ["N#Cc1ccc(N(CC(=O)NCCc2ccccc2)CC2CC2)c2ccccc12", 0.87],
  ["CCCCCCc1cc(O)c2c3c(c(=O)oc2c1)CCN(C)C3", 6.76],
  ["COc1ccc(O)c(CN2CCN(c3cc(C)ccc3C)CC2)c1", 2.89],
  ["Cc1[nH]c2ccccc2c1C1=CCN(CCCCCC23CCCc4cccc(c42)NC3=O)CC1 (stereo not drawn)", 3.51],
  ["COC(=O)c1ccc(CC(C)NCC(O)c2cccc(Br)c2)cc1 (stereo not drawn)", 2.26],
  ["CC1(C)N=C(N)N=C(N)N1c1ccc([N+](=O)[O-])cc1", 7.22],
  ["CC(Cc1ccc(NC(=O)[C@H](C)NCCc2cccc(Cl)c2)cc1)NCCc1cccc(Cl)c1 (stereo partly drawn)", 0.22],
  ["OC(CNC1CCCCCCC1)c1ccc(Cl)c(Cl)c1 (stereo not drawn)", 2.43],
  ["O=C(/C=C/c1cccs1)NC1CCC(CN2CCC(c3c[nH]c4ccccc34)CC2)CC1 (stereo not drawn)", 2.51],
  ["CN(C)CCc1c[nH]c2ccc(C(=O)Nc3ccc(-c4ccncc4)cc3)cc12", 0.61],
  ["COc1ccccc1CNCC(O)c1cc(C(F)(F)F)ccc1C(F)(F)F (stereo not drawn)", 1.6],
  ["CC[C@H]1CN2CCc3cc(OC)c(OC)cc3[C@@H]2C[C@@H]1C[C@H]1NCCc2c1cc(OC)c(O)c2I", 90],
  ["CCc1nc(N)nc(N)c1-c1cccc(Cl)c1", 3.02],
  ["O=C(Nc1ccc(Cl)c(Cl)c1)N1CCC(CN2CCC(c3c[nH]c4ccccc34)CC2)CC1", 4.11],
  ["COCCNCc1ccc(-c2cccc(CN(C(=O)CCC3CCCC3)C3CCN(Cc4ccccc4)CC3)c2)cc1", -1.05],
  ["CC(Cc1ccc(OCCOc2ccccc2)cc1)NCC(O)c1cccc(C(F)(F)F)c1 (stereo not drawn)", 4.17]
]}
